- SYSTEM_TESTED: bovine cardiac myosin (Bos taurus)
- Construct: The source of cardiac myosin was from bovine heart in the form of skinned myofibrils; from tissue; host or cells: bovine heart, skinned myofibrils
- ASSAY_NAME: Myosin inhibition assay (PK/LDH-coupled ATPase, bovine cardiac myofibrils)
- Assay type: biochemical
- CONDITION_SET: pCa75; assay conducted using 0.5 μM myosin, IC50 values below 1.0 μM are approximate; read-out: IC50 (pCa75)
Please go through the items and note down their IC50.
One number for each entry, in nM.

Example molecules with recorded IC50:
COc1cccc([C@H](C)Nc2cc(=O)n(C(C)C)c(=O)[nH]2)c1 [Compound 21] : 390
COc1cccc([C@@H](C)Nc2cc(=O)n(C(C)C)c(=O)[nH]2)c1 [Compound 20R] : 19600

Alright, here's another molecule for you.
Please fill in: IC50 reported for CC(C)n1c(=O)cc(N[C@@H](C)c2c(F)cccc2F)[nH]c1=O [Compound 59] = 450

----------
Kindly state pIC50 for each of the entries shown.
- SYSTEM_TESTED: bovine cardiac myosin (Bos taurus)
- Construct: The source of cardiac myosin was from bovine heart in the form of skinned myofibrils; from tissue; host or cells: bovine heart, skinned myofibrils
- ASSAY_NAME: Myosin inhibition assay (PK/LDH-coupled ATPase, bovine cardiac myofibrils)
- Format: biochemical
- CONDITION_SET: bovine cardiac myofibrils, calcium giving 50% activation (pCa50); read-out: Biochemical Activity (pCa50)
pIC50: −log10 of the molar value.

The following molecules have reported results that may help.
C[C@H](Nc1cc(=O)n(CC2CC2)c(=O)[nH]1)c1cccc(C(F)(F)F)c1 : 4.82 to 6.00
CC[C@H](C)n1c(=O)cc(N[C@@H](C)c2ccc(F)cc2)[nH]c1=O : > 6.00
COCCn1c(=O)cc(N[C@@H](C)c2ccccc2)[nH]c1=O : 4.82 to 6.00
C[C@H](Nc1cc(=O)n(C2(C(F)(F)F)CC2)c(=O)[nH]1)c1ccccc1 : > 6.00
C[C@H](Nc1cc(=O)n(-c2cccc(F)n2)c(=O)[nH]1)c1ccccc1 : > 6.00
C[C@H](Nc1cc(=O)n(C2CCC2)c(=O)[nH]1)c1ccccc1 : > 6.00
Cc1ccccc1[C@H](C)Nc1cc(=O)n(C(C)C)c(=O)[nH]1 : > 6.00

Then this molecule:
// field: pIC50; key: CC[C@H](Nc1cc(=O)n([C@@H](C)C(F)(F)F)c(=O)[nH]1)c1ccccc1 ; value = > 6.00

----------
- SYSTEM_TESTED: bovine cardiac myosin (Bos taurus, UniProt Q9BE39)
- Construct: The source of cardiac myosin was from bovine heart in the form of skinned myofibrils; from tissue; host or cells: bovine heart, skinned myofibrils
- Sequence (Q9BE39 whole entry): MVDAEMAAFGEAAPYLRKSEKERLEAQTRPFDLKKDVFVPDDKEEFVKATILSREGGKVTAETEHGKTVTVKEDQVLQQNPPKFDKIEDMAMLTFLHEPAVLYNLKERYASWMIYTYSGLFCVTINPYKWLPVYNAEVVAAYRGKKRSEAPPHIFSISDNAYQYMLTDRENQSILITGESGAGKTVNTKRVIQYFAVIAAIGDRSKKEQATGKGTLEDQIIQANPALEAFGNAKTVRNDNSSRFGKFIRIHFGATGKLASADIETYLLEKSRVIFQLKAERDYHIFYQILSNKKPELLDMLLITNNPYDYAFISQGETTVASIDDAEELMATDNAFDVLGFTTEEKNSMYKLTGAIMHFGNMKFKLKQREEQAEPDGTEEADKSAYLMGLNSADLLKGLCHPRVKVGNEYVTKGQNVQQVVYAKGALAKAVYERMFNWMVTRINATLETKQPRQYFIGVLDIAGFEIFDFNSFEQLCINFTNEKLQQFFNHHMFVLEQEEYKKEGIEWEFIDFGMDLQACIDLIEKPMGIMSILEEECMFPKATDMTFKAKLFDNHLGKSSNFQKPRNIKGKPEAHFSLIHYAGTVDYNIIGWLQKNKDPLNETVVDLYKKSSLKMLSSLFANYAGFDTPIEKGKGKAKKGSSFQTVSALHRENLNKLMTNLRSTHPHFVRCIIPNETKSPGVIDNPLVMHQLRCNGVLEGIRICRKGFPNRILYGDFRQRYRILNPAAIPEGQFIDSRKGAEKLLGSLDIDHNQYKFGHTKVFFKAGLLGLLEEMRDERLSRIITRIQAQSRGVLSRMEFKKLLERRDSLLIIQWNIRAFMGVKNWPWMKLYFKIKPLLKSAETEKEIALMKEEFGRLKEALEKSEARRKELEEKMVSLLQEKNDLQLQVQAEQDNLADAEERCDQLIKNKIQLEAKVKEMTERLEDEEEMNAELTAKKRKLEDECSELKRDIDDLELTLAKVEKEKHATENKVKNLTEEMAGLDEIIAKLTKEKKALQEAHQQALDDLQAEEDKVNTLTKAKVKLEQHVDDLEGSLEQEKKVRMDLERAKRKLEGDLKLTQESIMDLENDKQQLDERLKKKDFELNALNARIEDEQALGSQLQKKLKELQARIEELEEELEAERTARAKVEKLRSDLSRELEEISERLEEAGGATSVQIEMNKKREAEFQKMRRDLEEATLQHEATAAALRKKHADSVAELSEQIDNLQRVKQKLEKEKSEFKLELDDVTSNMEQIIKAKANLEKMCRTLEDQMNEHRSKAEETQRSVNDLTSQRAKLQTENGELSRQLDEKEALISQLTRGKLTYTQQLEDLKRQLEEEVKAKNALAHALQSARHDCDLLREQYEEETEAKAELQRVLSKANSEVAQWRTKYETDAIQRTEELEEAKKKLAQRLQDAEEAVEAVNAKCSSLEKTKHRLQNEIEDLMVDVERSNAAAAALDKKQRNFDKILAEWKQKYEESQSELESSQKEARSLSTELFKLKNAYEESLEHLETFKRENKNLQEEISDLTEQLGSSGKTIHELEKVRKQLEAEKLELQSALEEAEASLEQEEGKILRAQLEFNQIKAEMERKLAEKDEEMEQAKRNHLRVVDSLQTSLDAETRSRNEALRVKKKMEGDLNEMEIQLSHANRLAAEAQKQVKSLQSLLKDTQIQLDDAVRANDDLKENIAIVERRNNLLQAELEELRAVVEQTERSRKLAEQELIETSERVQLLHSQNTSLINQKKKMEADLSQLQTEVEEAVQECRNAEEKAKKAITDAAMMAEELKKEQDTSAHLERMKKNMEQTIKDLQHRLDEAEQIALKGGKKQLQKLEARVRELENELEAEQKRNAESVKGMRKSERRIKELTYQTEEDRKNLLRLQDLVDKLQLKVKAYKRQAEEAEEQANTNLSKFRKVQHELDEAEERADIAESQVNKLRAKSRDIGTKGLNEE
- Sequence (P85100 whole entry partner): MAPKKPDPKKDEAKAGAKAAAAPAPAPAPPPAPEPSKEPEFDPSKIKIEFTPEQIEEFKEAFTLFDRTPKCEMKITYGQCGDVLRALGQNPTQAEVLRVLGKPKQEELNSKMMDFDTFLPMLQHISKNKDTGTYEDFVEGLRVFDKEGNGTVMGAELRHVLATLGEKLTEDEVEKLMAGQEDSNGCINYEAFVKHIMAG
- Sequence (Q3SZE5 whole entry partner): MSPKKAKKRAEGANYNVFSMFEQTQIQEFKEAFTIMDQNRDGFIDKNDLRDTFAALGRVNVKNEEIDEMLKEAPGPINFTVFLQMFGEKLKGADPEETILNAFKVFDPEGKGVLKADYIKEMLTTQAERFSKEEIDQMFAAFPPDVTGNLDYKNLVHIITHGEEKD
- ASSAY_NAME: Myosin inhibition assay (PK/LDH-coupled ATPase, bovine cardiac myofibrils)
- Format: biochemical
- CONDITION_SET: bovine cardiac myofibrils, calcium giving 75% activation (pCa75); read-out: Biochemical Activity (pCa75)
pIC50: −log10 of the molar value.
QUANTITY_NAME: pIC50

C[C@H](Nc1cc(=O)n([C@@H](C)CO)c(=O)[nH]1)c1ccccc1 [Compound 92] : 4.82 to 6.00
CC(C)n1c(=O)cc(N[C@@H](C)c2cccc(Cl)c2)[nH]c1=O [Compound 28] : > 6.00
COC(=O)Cn1c(=O)cc(N[C@@H](C)c2ccccc2)[nH]c1=O [Compound 86] : 4.82 to 6.00
C[C@H](Nc1cc(=O)n(-c2cnccn2)c(=O)[nH]1)c1ccccc1 [Compound 75] : 4.82 to 6.00

--- query ---
# value of pIC50, bovine cardiac myosin (Bos taurus, UniProt Q9BE39), item CC(C)n1c(=O)cc(N[C@@H](C)CCc2ccccc2)[nH]c1=O [Compound 85] = > 6.00
